# TARGET ENTITY: Protein arginine N-methyltransferase 1 (Homo sapiens) (UniProt Q99873)
# Sequence (Q99873 whole entry, looked up): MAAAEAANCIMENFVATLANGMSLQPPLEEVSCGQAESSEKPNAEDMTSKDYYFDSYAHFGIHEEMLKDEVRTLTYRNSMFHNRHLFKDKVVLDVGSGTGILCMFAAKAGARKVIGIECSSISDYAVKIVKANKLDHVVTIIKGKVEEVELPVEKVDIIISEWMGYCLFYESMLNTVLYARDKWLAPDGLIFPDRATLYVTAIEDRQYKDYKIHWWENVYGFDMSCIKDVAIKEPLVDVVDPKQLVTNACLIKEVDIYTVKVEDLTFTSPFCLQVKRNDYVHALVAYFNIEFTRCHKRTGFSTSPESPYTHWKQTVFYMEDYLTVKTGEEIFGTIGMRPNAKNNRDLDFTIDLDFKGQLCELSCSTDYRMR
# ASSAY PROCEDURE: human PRMT1 activity-probe blockers – biochemical, fluorescence polarization, primary screen (AID 652257)
# PROTOCOL CONDITIONS: recombinant PRMT1, activity-based probe fluorescence polarization; at 2.79 µM
The campaign covered roughly 370,000 compounds. About 4,800 (1.3%) were called active.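 How the source made its calls: active means inhibition above about 21% made by adding two undisclosed values (limit read from the data); inactive means the rest.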 Shown is part of a subset that was picked to be rich in actives.
Outcome (select one): y = active, n = inactive

Answer briefly: the call reported for CC(=O)N1CCCc2cc(S(=O)(=O)N3CCCC(C(=O)N4CCN(c5cccc(Cl)c5)CC4)C3)ccc21 (stereo not drawn) in this assay.
n

For NC(=S)NN=Cc1ccc(OC(=O)COc2cc(Cl)c(Cl)cc2Cl)cn1 then?
y

What do we get for C=C1C(C(C)C)N(C)C2=NC(c3ccccc3)CC(=O)N12 (stereo not drawn) ?
n

Same for Cc1cc(-c2n[nH]c(=S)n2-c2ccc(C)c(C)c2)no1
n

Another compound: Cc1ccc2c(cnn2C(=O)CCC(=O)NC2CCCC2)c1
n

Please give the result for C=CCSc1nnc(N2C(=O)C(O)=C(C(=O)c3ccco3)C2c2ccc(F)cc2)s1 (stereo not drawn) too.
n

COC(=O)c1ccc(CNC(=O)Cn2cc(C)c(=O)[nH]c2=O)cc1 ?
n

Request: CCN(CC)c1ccc2oc(=O)c(C)nc2c1
y

What do you have for CCN(CC)S(=O)(=O)c1cccc(-c2n[nH]c(=S)n2/N=C/c2ccc(C(=O)OC)cc2)c1 ?
y

One more compound: Cc1nc(NC(=O)C(C)(C)C)sc1[N+](=O)[O-]
n

// query: Cc1cccc(C)c1NC(=O)C(c1cccc(F)c1)N1CCN(C)CC1 (stereo not drawn)
n

Moving on to CC(NCc1nc2ccccc2n1C)C12CC3CC(CC(C3)C1)C2 (stereo not drawn)
n

Cool, now O=C(NCc1cccnc1)c1cnc2ccccc2n1
n

====

# TARGET ENTITY: Protein arginine N-methyltransferase 1 (Homo sapiens)
# ASSAY PROCEDURE: human PRMT1 activity-probe blockers – biochemical, fluorescence polarization, primary screen (AID 652257)
# PROTOCOL CONDITIONS: recombinant PRMT1, activity-based probe fluorescence polarization; at 2.79 µM
The campaign covered roughly 370,000 compounds. About 4,800 (1.3%) were called active.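 The calls were made as follows: active = inhibition above about 21% made by adding two undisclosed values (limit read from the data); inactive = the rest.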 The sample as a whole holds a higher share of actives than the screen did.
Could you please pick one outcome from this set? active, inactive

Illustrative cases are given below, each with its answer.
CC(=O)N1CCN(C(=O)c2cc(-c3ccc(Cl)s3)nc3ccccc23)CC1 = inactive
Nn1c(SCC(=O)Nc2ccc(S(N)(=O)=O)cc2)nnc1-c1n[nH]c2c1CCC2 = inactive
Clc1ccc(-n2c(COc3ccccc3)nnc2SCc2nc3ccccc3[nH]2)cc1 = inactive
O=C(N/N=C/C=C/c1ccco1)c1cccs1 = inactive

Shift focus to the following entry.
Short answer needed: outcome of this test for O=C(Nc1cccc(F)c1)c1cc(-c2ccco2)nc2ccccc12 ?
active

====

# TARGET ENTITY: Protein arginine N-methyltransferase 1 (Homo sapiens) (UniProt Q99873)
# ASSAY PROCEDURE: human PRMT1 activity-probe blockers – biochemical, fluorescence polarization, primary screen (AID 652257)
# PROTOCOL CONDITIONS: recombinant PRMT1, activity-based probe fluorescence polarization; at 2.79 µM
Among all 370,000 compounds or so, about 4,800 (1.3%) were called active.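 How the source made its calls: active means inhibition above about 21% made by adding two undisclosed values (limit read from the data); inactive means the rest.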 This is one part of a sample in which actives are shown more often than they occur.
Log the outcome using a class from 1 for active, -1 for inactive

O=C(NCc1cccs1)C1CCCN(S(=O)(=O)c2ccc([N+](=O)[O-])cc2)C1 (stereo unspecified) = -1
COCCCNC(=O)C[C@H]1C[C@@]2(C(=O)OC)C(=C[C@H](C(C)(C)C)O[C@@H]2C)N(Cc2ccc(Cl)cc2Cl)C1=O = -1
O=C(Nc1cccc(Cl)c1)OC1CC2CC1[C@H]1CCCCN1[C@H]2Cc1ccccc1 (stereo partly specified) = -1
CC(=O)N1CCc2cc(Br)cc(S(=O)(=O)CCC(=O)Nc3c(C)n(C)n(-c4ccccc4)c3=O)c21 = -1

I would be grateful if you could indicate the recorded call for CCc1c(C)nc(N)n2c(SCC(=O)NC3CCCCC3)nnc12 .
-1

Quick one: CCC(=O)Nc1c(S(=O)(=O)c2ccccc2)c2nc3ccccc3nc2n1Cc1ccccc1
-1

Next entry: O=C(CCCCCN1C(=O)C2C3C=CC(C3)C2C1=O)Nc1ccccn1 (stereo unspecified)
-1

Do the same for Cc1cccc(-n2c(N)c(C(=O)N3CCN(C)CC3)sc2=S)c1 please
1

Would you kindly repeat that for Cc1cc(NS(=O)(=O)c2ccc(NC(=O)CSc3nnc(SCc4ccc(F)cc4)s3)cc2)nc(C)n1 ?
-1

Lookup O=C(c1ccccc1)c1ccc(-c2ccccc2C(=O)NC2CCCCN(Cc3ccc(Cl)cc3)C2=O)cc1 (stereo unspecified)
-1

Lookup Nc1nc(NC(=O)/C=C/c2ccc(F)cc2)nn1-c1ccccc1
-1

Cool, now C=CCn1c(SCC(N)=O)nnc1-c1ccccc1OC
-1

Moving on to Cc1cc(Br)cn2c(Cc3cccc(F)c3)c(-c3cccc(Br)c3)nc12
-1

Another compound to check: Cc1cc2nc(-c3ccc(F)cc3)c(Cc3ccsc3)n2c(C)c1Br
-1

Continue with CCOC(=O)[C@]12CCCCC/C=C\1N(Cc1ccc(OC)cc1)C(=O)[C@H]2CC(=O)NCc1ccc(C)o1
-1

Try this compound next: N#Cc1ccccc1-n1c(N)c(C(=O)N2CCCC2)sc1=S
-1

Reference for the values: PubChem BioAssay AID652257
